The entries below are paired with their reported Expt 2 EC50.
# Test system: HepG2 B6 cells (STAT-sPAP reporter)
# assay: OSM-GST mutant driven sPAP production in HepG2 B6 assay
# Assay type: cell-based, human
Returns: string containing the number followed by the unit.

molecule: (10) L17A: OSM-GST fusion, alanine for Leu 17 (protein, left off: a dimerising Fc or GST; large carriers; small tags and cut ends) AAIGSCSKEYRVLLGQAQKQTDLMQDTSRLLDPYIRIQGLDVPKLREHCRERPGAFPSEETLRGLGRRGFLQTLNATLGCVLHRLADLEQRLPKAQDLERSGLNIEDLEKLQMARPNILGLRNNIYCMAQLLDNSDTAEPTKAGRGASQPPTPTPASDAFQRKLEGCRFLHGYHRFMHSVGRVFSKWGESPNRSRR
readout_name: Expt 2 EC50
experimental_result: 0.056 mg/L
//
molecule: (14) T21A: OSM-GST fusion, alanine for Thr 21 (protein, left off: a dimerising Fc or GST; large carriers; small tags and cut ends) AAIGSCSKEYRVLLGQLQKQADLMQDTSRLLDPYIRIQGLDVPKLREHCRERPGAFPSEETLRGLGRRGFLQTLNATLGCVLHRLADLEQRLPKAQDLERSGLNIEDLEKLQMARPNILGLRNNIYCMAQLLDNSDTAEPTKAGRGASQPPTPTPASDAFQRKLEGCRFLHGYHRFMHSVGRVFSKWGESPNRSRR
readout_name: Expt 2 EC50
experimental_result: 0.0105 mg/L

Consider the record given below.
IN: // query Expt 2 EC50 value for entry (21) R122A: OSM-GST fusion, alanine for Arg 122 (protein, left off: a dimerising Fc or GST; large carriers; small tags and cut ends) AAIGSCSKEYRVLLGQLQKQTDLMQDTSRLLDPYIRIQGLDVPKLREHCRERPGAFPSEETLRGLGRRGFLQTLNATLGCVLHRLADLEQRLPKAQDLERSGLNIEDLEKLQMARPNILGLANNIYCMAQLLDNSDTAEPTKAGRGASQPPTPTPASDAFQRKLEGCRFLHGYHRFMHSVGRVFSKWGESPNRSRR
OUT: 0.0138 mg/L
